assay: AUC in Sprague-Dawley rat brain at 10 mg/kg, ip; assay type: ADME, organism-based; set-up: dose 10 mg/kg, route intraperitoneal
Would you mind telling me the reported AUC of each entry?
Report the figure in µg·h/mL without appending any unit label.

Per the record, `O=C(Nc1cccc(OC(F)F)c1)c1ccccn1` has AUC of 0.976

Per the record, `COc1cc(NC(=O)c2ccccn2)ccc1Cl` has AUC of 0.705

---

biological target: Metabotropic glutamate receptor 4 (Homo sapiens, UniProt Q14833); test: Activity at human mGluR4 receptor expressed in CHO cells assessed as effect on calcium mobilization; assay type: functional, cell-based
Sequence (Q14833 whole entry): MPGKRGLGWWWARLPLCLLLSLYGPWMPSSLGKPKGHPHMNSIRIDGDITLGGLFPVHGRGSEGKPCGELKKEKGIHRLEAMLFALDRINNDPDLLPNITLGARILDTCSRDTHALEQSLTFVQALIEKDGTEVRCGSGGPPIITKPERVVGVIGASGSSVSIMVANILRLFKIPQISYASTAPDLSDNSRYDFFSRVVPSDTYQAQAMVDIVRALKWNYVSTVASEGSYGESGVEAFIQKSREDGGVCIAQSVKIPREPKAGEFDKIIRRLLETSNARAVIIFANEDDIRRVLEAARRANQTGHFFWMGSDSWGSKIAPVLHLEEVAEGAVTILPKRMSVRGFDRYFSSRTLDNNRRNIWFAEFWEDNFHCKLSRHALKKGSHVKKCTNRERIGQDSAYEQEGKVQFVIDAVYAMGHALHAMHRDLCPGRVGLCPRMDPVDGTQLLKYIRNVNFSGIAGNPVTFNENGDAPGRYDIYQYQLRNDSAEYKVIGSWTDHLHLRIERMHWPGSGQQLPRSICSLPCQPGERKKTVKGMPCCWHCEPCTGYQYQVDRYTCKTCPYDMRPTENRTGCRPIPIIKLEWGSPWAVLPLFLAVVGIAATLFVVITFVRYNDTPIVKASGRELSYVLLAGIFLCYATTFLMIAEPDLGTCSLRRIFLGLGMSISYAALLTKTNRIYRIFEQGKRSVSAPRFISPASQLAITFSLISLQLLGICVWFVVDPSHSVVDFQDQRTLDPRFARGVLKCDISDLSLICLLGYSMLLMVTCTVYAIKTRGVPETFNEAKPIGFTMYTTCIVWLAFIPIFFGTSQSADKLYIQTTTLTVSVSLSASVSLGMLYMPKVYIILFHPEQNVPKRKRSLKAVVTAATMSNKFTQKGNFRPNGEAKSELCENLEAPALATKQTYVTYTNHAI
Would you mind telling me the reported EC50 of each entry?

Per the record, `Cc1cc(NC(=O)c2ccco2)ccc1Br` has EC50 of > 5 µM

Per the record, `COc1cc(NC(=O)c2ccccn2)ccc1C` has EC50 of 0.56 µM

Per the record, `O=C(Nc1ccc2c(c1)OCO2)c1ccccn1` has EC50 of > 10 µM

Per the record, `O=C(Nc1ccc(Cl)c(Cl)c1)c1ccccn1` has EC50 of 1.4 µM

Per the record, `O=C(Nc1ccc(Cl)c(C(F)(F)F)c1)c1ccccn1` has EC50 of 2.1 µM

Per the record, `O=C(Nc1ccc(Cl)c(Cl)c1)c1cc2ccccc2o1` has EC50 of > 10 µM

Per the record, `O=C(Nc1ccc(Cl)c(Cl)c1)c1ccsc1` has EC50 of > 10 µM

Per the record, `O=C(Nc1ccc(Cl)c(Cl)c1)c1ccno1` has EC50 of > 10 µM

Per the record, `O=C(Nc1cccc(C(F)(F)F)n1)c1ccccn1` has EC50 of > 10 µM

Per the record, `COc1cc(NC(=O)c2ccccn2)ncn1` has EC50 of > 10 µM

Per the record, `O=C(Nc1cccc(Cl)c1)c1ccco1` has EC50 of > 5 µM

Per the record, `O=C(Nc1ccc(Cl)c(Cl)c1)c1ccco1` has EC50 of > 5 µM

Per the record, `O=C(Nc1ccc(Cl)c(Cl)c1)c1ccc(-c2ccccc2)o1` has EC50 of > 10 µM
